# Experiment description: inhibitors of intracellular T. cruzi replication, confirmation, NIH3T3 host cells, beta-gal luminescence (AID 2044);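 further: intracellular parasites grown in NIH/3T3 mouse fibroblasts as host cells; luminescent beta-galactosidase reporter signal from transgenic T. cruzi replicating inside host cells; inhibitors lower the luminescence signal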
# Assay type: functional, cell-based
Activity calls are given as the source filed them.
Measurement name: EC50

Lookup: Bench note: what EC50 did "O=C(COc1ccccc1/C=C\c1nc(O)nc(O)c1[N+](=O)[O-])Nc1ccccc1" show?
Found: > 60000 nM (not active)

Lookup: Consider next the compound "CN=C(S)N(CCc1c(C)[nH]c2ccc(Cl)cc12)Cc1cccs1" in the same way.
Found: 2280 nM (active)

Lookup: Consider next the compound "O=C(C1=C[C@H](C2CCCCC2)C[C@H](OCc2ccc(CO)cc2)O1)N1CCN(Cc2ccc3c(c2)OCO3)CC1" in the same way.
Found: < 100 nM (active)

Lookup: Consider next the compound "CCN(CC)c1ccc(/C=C(/C#N)c2nc3cc(C)ccc3[nH]2)c(OC(C)C)c1" in the same way.
Found: 823 nM (active)

Lookup: Consider next the compound "CCCc1cc(-c2nc(N)ncc2-c2ccc3c(c2)OCCCO3)c(O)cc1OC" in the same way.
Found: 884 nM (active)

Lookup: Consider next the compound "N#Cc1cc(-c2ccc(Cl)cc2)cnc1Sc1ccccc1" in the same way.
Found: 3770 nM (active)

Lookup: Consider next the compound O=S(=O)(NCC(c1cccnc1)N1CCN(Cc2ccccc2)CC1)c1ccc(Cl)cc1 (configuration not stated) in the same way.
Found: 641 nM (active)

Lookup: Consider next the compound "Cc1ccc(C)c(N2CN(Cc3cccnc3)CN=C2S)c1" in the same way.
Found: 726 nM (active)

Lookup: Consider next the compound CC(C)[C@H]1C(=O)O[C@H](C(C)C)C(=O)N(C)[C@@H](C(C)C)C(=O)O[C@H](C(C)C)C(=O)N(C)[C@@H](C(C)C)C(=O)O[C@H](C(C)C)C(=O)N1C [ENNIATIN B] in the same way.
Found: 853 nM (active)

Lookup: Consider next the compound CC1CN(CCOCCSc2ccc(Cl)cc2)CC(C)O1 (configuration not stated) in the same way.
Found: < 100 nM (active)

Lookup: Consider next the compound "Cn1nc([N+](=O)[O-])nc1Oc1ccc(C(C)(C)C)cc1" in the same way.
Found: 201 nM (active)

Lookup: Consider next the compound "CN1CCN(c2ccccc2NC(=O)c2ccc(-c3ccc(Cl)cc3Cl)o2)CC1" in the same way.
Found: 1060 nM (active)

---

# Experiment description: Luminescence Cell-Based Dose Retest to Confirm Inhibitors of Cancer Stem Cells. [Related pubchem assays (depositor defined):AID2717, AID2721]
# Format: functional
# Assay setup: Homo sapiens
The source made the active and inactive calls.
Measurement name: AC50

Lookup: Bench note: what AC50 did CCC1=NN(C(=O)c2ccc(Cl)cc2)C(O)(c2ccc(C)cc2)C1 (stereo not drawn) show?
Found: 4.64 µM (active)

Lookup: Consider next the molecule "Cc1ccc(S(=O)(=O)Nc2ccc(-c3csc(-c4ccccc4)n3)cc2)cc1" in the same way.
Found: 3.5 µM (active)

Lookup: Consider next the molecule CC1(C)C[C@H](O)[C@]2(CO)[C@H](O)C[C@]3(C)C(=CCC4[C@@]5(C)CC[C@H](O)C(C)(C)C5CC[C@]43C)[C@@H]2C1 (stereo partly drawn) in the same way.
Found: 1.97 µM (active)

Lookup: Consider next the molecule "Cc1nn(-c2ccccc2)c2nc(N)c(C#N)c(-c3ccc(C(C)(C)C)cc3)c12" in the same way.
Found: 2.14 µM (active)

Lookup: Consider next the molecule "CCN1C(=O)/C(=C\c2ccncc2)S/C1=N\c1ccc(C)c(C)c1" in the same way.
Found: 3.77 µM (active)

Lookup: Consider next the molecule "CC(C)(C)c1ccc(C(=O)NCCCN2CCN(CCCNC(=O)c3ccc(C(C)(C)C)cc3)CC2)cc1" in the same way.
Found: 6.71 µM (active)

Lookup: Consider next the molecule COc1ccc(CC2SC(N/N=C/c3ccccc3O)=NC2=O)cc1 (stereo not drawn) in the same way.
Found: 8.79 µM (active)

Lookup: Consider next the molecule "Cc1cc(C(=O)Nc2nc3c(s2)CCCC3)cs1" in the same way.
Found: 1.97 µM (active)

---

# Assay system: Endoribonuclease toxin MazF (Escherichia coli K-12, UniProt P0AE70)
# Sequence (P0AE70 whole entry): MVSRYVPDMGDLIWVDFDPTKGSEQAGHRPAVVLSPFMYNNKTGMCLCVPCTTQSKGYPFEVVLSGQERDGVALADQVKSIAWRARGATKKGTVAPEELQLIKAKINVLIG
# Experiment description: MazF toxin RNase activators, dose response, biochemical, fluorescence, single-stranded RNA substrate, uHTS hits (AID 588481)
# Format: functional
Calls of active or inactive are those of the source.
Log the outcome using a class from true (1) (active), false (0) (inactive)

Lookup: Kindly provide the recorded test outcome for the following compound: "COc1ccc(C(=O)N/N=C\c2coc3ccc(C)cc3c2=O)cc1"
Found: false (0)

Lookup: Consider next the compound "N#C/C(=C\c1ccc([N+](=O)[O-])cc1)c1nc(C2CC2)cs1" in the same way.
Found: true (1)

Lookup: Consider next the compound "N#C/C(=C\C1=C(N2CCOCC2)C(=C/c2cccc([N+](=O)[O-])c2)/CC1)C(=O)Nc1ccccc1F" in the same way.
Found: false (0)

Lookup: Consider next the compound "CCOC(=O)c1c(/N=C/C2C(=O)NC(=O)NC2=O)sc2c1CCC2" in the same way.
Found: false (0)

Lookup: Consider next the compound "CN(/N=C/c1ccc(N(C)C)cc1)C1=NS(=O)(=O)c2ccccc21" in the same way.
Found: false (0)

---

Provide the recorded EC50 for the entries that follow.
# Tested on: BJ
# Experiment description: cytotoxicity toward BJ-TERT-LT-ST fibroblasts, dose response, cell-based, RAS-independent, luminescence (AID 1935);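 further: BJ fibroblasts immortalized with TERT plus LT and ST oncogenes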
# Assay type: functional
# Assay setup: Homo sapiens
Active and inactive are the calls of the source.

Lookup: Bench note: what EC50 did "COc1ccccc1N=C(S)N(Cc1ccco1)Cc1cc2ccc(C)c(C)c2nc1O" show?
Found: 525 nM (active)

Lookup: Consider next the compound "CN(/N=C/c1ccc(N(C)C)cc1)C1=NS(=O)(=O)c2ccccc21" in the same way.
Found: > 150000 nM (not active)

Lookup: Consider next the compound "O=C(NCCOc1cccnc1)c1ccc(OC2CCN(Cc3ccccn3)CC2)cc1" in the same way.
Found: 543 nM (inconclusive)

Lookup: Consider next the compound "COc1ccc(S(=O)(=O)N2CCOCC2)cc1NC(=O)CCNC(=O)c1ccc(Br)cc1" in the same way.
Found: 2020 nM (active)

Lookup: Consider next the compound "O=C(Cc1ccc([N+](=O)[O-])cc1)N/N=C/c1ccc([N+](=O)[O-])o1" in the same way.
Found: 18300 nM (active)

---

Provide the recorded EC50 for the entries that follow.
# Experiment description: Luminescence Cell-Based Dose Response HTS to Identify Activators of Luciferase Translation or Activity in H4 […] Cells. [Related pubchem assays: 1829 (Project Summary), 1814 (Primary HTS)]
# Type: functional
Active and inactive are the calls of the source.

Lookup: Bench note: what EC50 did "O=C(Cc1cccs1)Nc1ccc(-c2nc3ccccc3[nH]2)cc1" show?
Found: 1.51 µM (active)

Lookup: Consider next the molecule "Cc1cc(N)n2ncc(-c3ccccc3)c2n1" in the same way.
Found: 0.137 µM (active)

Lookup: Consider next the molecule O=[N+]([O-])c1ccc(C(O)CSC(=S)N2CCCCC2)cc1 (centres undefined) in the same way.
Found: 56.4 µM (active)

Lookup: Consider next the molecule Cc1ccc(NC(=O)C2C3C=CC4(CN(Cc5cccnc5)C(=O)C24)O3)cc1 (centres undefined) in the same way.
Found: 11.9 µM (active)

---

# Experiment description: cytotoxicity toward NIH3T3 fibroblasts, dose response, counter-screen, cell-based, ATP luminescence, mouse fibroblasts (AID 2010);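 further: cells exposed to compound for about 90 hours before reading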
# Format: functional
Activity calls are given as the source filed them.
Measurement name: EC50

Lookup: Bench note: what EC50 did "C/C(=N\N(Cc1ccccc1)c1ccccc1)c1cccnc1" show?
Found: > 60 µM (not active)

Lookup: Consider next the compound "Cc1[nH]n(-c2ccccc2)c(=O)c1/N=N/c1cccc([N+](=O)[O-])c1" in the same way.
Found: > 60 µM (not active)

Lookup: Consider next the compound "CCCc1cc(-c2nc(N)ncc2-c2ccc3c(c2)OCCCO3)c(O)cc1OC" in the same way.
Found: 21 µM (active)

Lookup: Consider next the compound Cc1cccc(N(C(=O)C(F)(F)F)C(C(=O)NC2CCCCC2)c2cccs2)c1 (centres undefined) in the same way.
Found: > 60 µM (not active)

Lookup: Consider next the compound CCN(CCNC(=O)C1CCCN(Cc2nc(-c3ccc(OC)cc3)oc2C)C1)c1ccccc1 (centres undefined) in the same way.
Found: 7.96 µM (active)

Lookup: Consider next the compound O=S(=O)(NCC(c1cccnc1)N1CCN(Cc2ccccc2)CC1)c1ccc(Cl)cc1 (centres undefined) in the same way.
Found: > 60 µM (not active)

Lookup: Consider next the compound "CC(=O)n1cc([C@H]2C=C(C(=O)N3CCN(Cc4ccc5c(c4)OCO5)CC3)O[C@@H](OCc3ccc(CO)cc3)C2)c2ccccc21" in the same way.
Found: > 30 µM (not active)

Lookup: Consider next the compound "Cn1nc([N+](=O)[O-])nc1Oc1ccc(C(C)(C)C)cc1" in the same way.
Found: > 60 µM (inconclusive)

Lookup: Consider next the compound CCOC(=O)c1c(C)n(CC(O)CN(C)C)c2cc(Br)c(OC)cc12 (centres undefined) in the same way.
Found: > 60 µM (not active)
